# system.under.test: Beta-adrenergic receptor kinase 1 (Homo sapiens)
# protocol.summary: compounds blocking aptamer binding on GRK2 – biochemical, human GRK2, bead flow cytometry, HTS, primary screen (AID 488847);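 further: median bead fluorescence of bound FAM aptamer so fluorescent compounds give negative values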
# applied.conditions: FAM-aptamer displacement from GRK2, at 10 µM
About 1,900 (0.58%) of roughly 330,000 compounds were called active.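 How the source made its calls: active means inhibition of aptamer binding above 40%, roughly 3 SD of noise, on plates passing a quality check; inactive means the rest.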 The list comes from a sample in which actives are over-represented; it also holds close analogues and randomly drawn compounds.
Thanks in advance; please answer with one of these: active, inactive

Some solved entries appear below for comparison.
INSERT INTO results (compound, qualitative_label) VALUES
  ('CCOC(=O)c1c(C)[nH]c(C)c1S(=O)(=O)NCCCc1ccco1', 'inactive'),
  ('C/C(=N\Nc1nc(Nc2ccccc2)nc(N2CCOCC2)n1)c1cccs1', 'inactive'),
  ('C=CC[C@@H](CC(=O)N[C@H](CO)Cc1ccccc1)C(=O)N[C@H](C)COC(=O)[C@@H](CC=C)Cc1ccc(F)cc1', 'inactive'),
  ('O=c1[nH]c(CCl)nc2cc(-c3ccc(Cl)cc3)sc12', 'inactive'),
  ('COc1cc(C)ccc1OCC(=O)OCC(=O)c1ccc[nH]1', 'inactive'),
  ('CCOC(=O)C(C)n1cnc2scc(-c3ccc(C)c(C)c3)c2c1=O (stereo not given)', 'active'),
  ('COC(=O)c1ccc(S(=O)(=O)NCc2ccccc2)n1C', 'inactive'),
  ('Cc1nn(C)c(Cl)c1CN1CCC(n2nccc2NC(=O)C2CCCC2)CC1', 'inactive'),
  ('Cc1cccc2nc(CNc3ccc(F)cc3)cn12', 'inactive'),
  ('CSc1nc2ccccc2c(=O)n1Cc1ccc(F)cc1', 'active');

Please indicate how the test categorized O=C(OCC1O[C@@H](OC(=O)c2cc(O)c(O)c(O)c2)[C@@H](OC(=O)c2cc(O)c(O)c(O)c2)[C@@H](OC(=O)c2cc(O)c(O)c(O)c2)[C@@H]1OC(=O)c1cc(O)c(O)c(O)c1)c1cc(O)c(O)c(O)c1 (stereo not given in full) .
inactive

Please indicate how the test categorized CC(Oc1ccc(F)cc1)C(=O)N1CCN(c2ncccn2)CC1 (stereo not given) .
inactive

Please indicate how the test categorized COc1ccccc1N1CCN(CC(=O)Nc2ccnn2C2CCCC2)CC1 .
inactive

====

# system.under.test: Beta-adrenergic receptor kinase 1 (Homo sapiens) (UniProt P25098)
# Sequence (P25098 whole entry, looked up): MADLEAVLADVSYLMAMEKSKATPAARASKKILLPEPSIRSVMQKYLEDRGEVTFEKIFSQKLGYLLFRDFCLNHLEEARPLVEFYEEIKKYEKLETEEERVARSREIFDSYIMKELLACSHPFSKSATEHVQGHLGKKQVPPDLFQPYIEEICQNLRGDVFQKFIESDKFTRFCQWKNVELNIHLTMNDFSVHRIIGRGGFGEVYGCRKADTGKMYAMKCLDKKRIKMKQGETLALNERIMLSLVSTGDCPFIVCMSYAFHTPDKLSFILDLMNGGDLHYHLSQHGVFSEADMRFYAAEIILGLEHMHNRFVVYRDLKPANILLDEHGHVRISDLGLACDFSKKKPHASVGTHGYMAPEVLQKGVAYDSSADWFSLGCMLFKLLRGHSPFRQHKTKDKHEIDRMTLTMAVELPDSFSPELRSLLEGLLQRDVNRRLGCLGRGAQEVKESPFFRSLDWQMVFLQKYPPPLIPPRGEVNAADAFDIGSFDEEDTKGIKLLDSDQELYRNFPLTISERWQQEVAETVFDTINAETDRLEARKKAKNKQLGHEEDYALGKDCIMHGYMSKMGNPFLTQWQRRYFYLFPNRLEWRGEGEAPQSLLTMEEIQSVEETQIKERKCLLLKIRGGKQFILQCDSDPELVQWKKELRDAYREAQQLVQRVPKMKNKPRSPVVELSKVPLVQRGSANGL
# protocol.summary: compounds blocking aptamer binding on GRK2 – biochemical, human GRK2, bead flow cytometry, HTS, primary screen (AID 488847)
# applied.conditions: FAM-aptamer displacement from GRK2, at 10 µM
Out of some 330,000 compounds screened, about 1,900 (0.58%) were called active.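 The calls were made as follows: active = inhibition of aptamer binding above 40%, roughly 3 SD of noise, on plates passing a quality check; inactive = the rest.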 This excerpt belongs to a sample that is enriched for actives.
Thanks in advance; please answer with one of these: active, inactive

INSERT INTO assay_data (compound, qualitative_label) VALUES
  ('N/C(=N\OC(=O)CCC1CCCCC1)c1ccccn1', 'inactive'),
  ('CONC(=O)c1cc(OCC(F)(F)F)ccc1OCC(F)(F)F', 'inactive'),
  ('Cc1ccc(-n2ncc3c2CC(C)(C)CC3NC(=O)Cc2c(C)noc2C)cc1 (stereo unspecified)', 'inactive'),
  ('O=c1ccc2c(-c3ccccc3S(=O)(=O)O)c3ccc(O)c(O)c3oc-2c1O', 'active'),
  ('CCOc1ccccc1C(=O)NCc1ccco1', 'active');

Consider the additional compound presented here.
Please indicate how the test categorized Cc1ccccc1-n1cc(CNC(=O)CC2C(=O)NCCN2C/C=C/c2ccccc2)cn1 (stereo unspecified) .
inactive

====

# system.under.test: Beta-adrenergic receptor kinase 1 (Homo sapiens) (UniProt P25098)
# protocol.summary: compounds blocking aptamer binding on GRK2 – biochemical, human GRK2, bead flow cytometry, HTS, primary screen (AID 488847);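 further: median bead fluorescence of bound FAM aptamer so fluorescent compounds give negative values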
# applied.conditions: FAM-aptamer displacement from GRK2, at 10 µM
Hit rate of the full screen: of about 330,000 compounds, about 1,900 (0.58%) were called active.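 The calls were made as follows: active = inhibition of aptamer binding above 40%, roughly 3 SD of noise, on plates passing a quality check; inactive = the rest.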 What follows is part of a selection rich in actives, with near analogues and random picks from the rest.
Thanks in advance; please answer with one of these: active, inactive

INSERT INTO measurements (compound, qualitative_label) VALUES
  ('CN(CCc1ccccn1)S(=O)(=O)c1ccc2c3c(cccc13)C(=O)N2', 'inactive');

Please indicate how the test categorized CC1CCN(CC(=O)Nc2nccs2)CC1 .
inactive

Please indicate how the test categorized COc1ccc(S(=O)(=O)NCC(c2ccc(C)cc2)N2CCN(C)CC2)cc1OC (configuration not stated) .
inactive

Please indicate how the test categorized CN(C(=O)c1cccc([N+](=O)[O-])c1)c1ccccc1C(=O)NCc1ccccc1 .
inactive

Please indicate how the test categorized COc1cc(OC)c(C2=NOC(C(=O)Nc3c(C)n(C)n(-c4ccccc4)c3=O)C2)cc1Cl (configuration not stated) .
inactive

Please indicate how the test categorized O=C(NCCCN1CCCCC1)c1ccc2c(c1)NC(=O)C(N1CCOCC1)S2 (configuration not stated) .
inactive

Please indicate how the test categorized COCCn1c(N)c(N(Cc2ccccc2)C(=O)C2CCCCC2)c(=O)[nH]c1=O .
inactive

Please indicate how the test categorized CCN1/C(=C\c2ccc3ccccc3[n+]2CC)Sc2cc(C)ccc21 .
active

Please indicate how the test categorized CCOC(=O)c1ccc(NC(=O)c2c(NCc3ccccc3)[nH]c(=O)[nH]c2=O)cc1 .
inactive

Please indicate how the test categorized Cc1cccc(NC(=S)NCc2ccc3[nH]c4c(c3c2)CCCC4)c1 .
inactive

Please indicate how the test categorized CCN1/C(=C/c2ccc3ccc(C)cc3[n+]2CC)Sc2ccccc21 .
active

Please indicate how the test categorized CN(C(=O)CC(NC(=O)c1ccccc1)(c1ccccc1)c1ccccc1)c1ccccc1 .
inactive

Please indicate how the test categorized O=[N+]([O-])c1ccccc1S(=O)(=O)Nc1cccc2cccnc12 .
active

====

# system.under.test: Beta-adrenergic receptor kinase 1 (Homo sapiens)
# protocol.summary: compounds blocking aptamer binding on GRK2 – biochemical, human GRK2, bead flow cytometry, HTS, primary screen (AID 488847);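 further: median bead fluorescence of bound FAM aptamer so fluorescent compounds give negative values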
# applied.conditions: FAM-aptamer displacement from GRK2, at 10 µM
Out of some 330,000 compounds screened, about 1,900 (0.58%) were called active.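 Rule for the calls: active = inhibition of aptamer binding above 40%, roughly 3 SD of noise, on plates passing a quality check; inactive = the rest.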 The full list was thinned out, with actives kept by preference.
Thanks in advance; please answer with one of these: yes (1) for active, no (0) for inactive

Some solved entries appear below for comparison.
INSERT INTO measurements (compound, system_under_test, qualitative_label) VALUES
  ('CCOC(=O)c1cc(-c2nnc(-c3cc(OC)c(OC)c(OC)c3)o2)c(C)nc1C', 'Beta-adrenergic receptor kinase 1 (Homo sapiens)', 'no (0)'),
  ('CC(C)(C)OC(=O)N/N=C/c1ccc(C(=O)O)cc1', 'Beta-adrenergic receptor kinase 1 (Homo sapiens)', 'no (0)'),
  ('Cc1ccc(OCc2cc(C(=O)N(C)CCn3ccnc3C)no2)cc1C', 'Beta-adrenergic receptor kinase 1 (Homo sapiens)', 'no (0)'),
  ('COC(=O)N/N=C/c1ccc(/C=N/NC(=O)OC)cc1', 'Beta-adrenergic receptor kinase 1 (Homo sapiens)', 'yes (1)'),
  ('CO/N=C(/CS(=O)(=O)c1ccc(Br)cc1)c1ccc(OC)cc1', 'Beta-adrenergic receptor kinase 1 (Homo sapiens)', 'no (0)'),
  ('Cc1ccc(-c2nc(CS(=O)CC(=O)NC3CCCC3)c(C)o2)cc1 (configuration not stated)', 'Beta-adrenergic receptor kinase 1 (Homo sapiens)', 'no (0)'),
  ('COc1cc(C(=O)OCC(=O)N(CC(C)C)C2CCS(=O)(=O)C2)ccc1OCC(C)C (configuration not stated)', 'Beta-adrenergic receptor kinase 1 (Homo sapiens)', 'yes (1)'),
  ('CCC(=O)Nc1ccccc1C(=O)N1CCN(Cc2ccccc2)CC1', 'Beta-adrenergic receptor kinase 1 (Homo sapiens)', 'no (0)'),
  ('COC(=O)N/N=C/c1ccc(-c2ccc(Cl)c(Cl)c2)o1', 'Beta-adrenergic receptor kinase 1 (Homo sapiens)', 'no (0)'),
  ('O=c1[nH]c(SCc2ccccc2)nnc1-c1ccccc1', 'Beta-adrenergic receptor kinase 1 (Homo sapiens)', 'yes (1)');

Please indicate how the test categorized CC(=O)Nc1cccc(C(=O)OCC(=O)c2ccc3c(c2)OCO3)c1 .
no (0)

Please indicate how the test categorized O=C(COC(=O)c1ccc(O)cc1O)c1ccc2c(c1)OCCO2 .
yes (1)

Please indicate how the test categorized COc1ccc(C2C(C#N)=C(N)Oc3cc(N)ccc32)cc1OC (configuration not stated) .
no (0)

Please indicate how the test categorized CCCc1nc2ccccc2c(C(=O)OCc2nnc(-c3cc(OC)c(OC)c(OC)c3)o2)c1CC .
yes (1)

Please indicate how the test categorized O=C(OCc1ccccc1F)c1ccc2c(c1)OCCO2 .
no (0)

====

# system.under.test: Beta-adrenergic receptor kinase 1 (Homo sapiens) (UniProt P25098)
# protocol.summary: compounds blocking aptamer binding on GRK2 – biochemical, human GRK2, bead flow cytometry, HTS, primary screen (AID 488847);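 further: median bead fluorescence of bound FAM aptamer so fluorescent compounds give negative values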
# applied.conditions: FAM-aptamer displacement from GRK2, at 10 µM
The whole screen tested about 330,000 compounds, of which about 1,900 (0.58%) were called active.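 Rule for the calls: active = inhibition of aptamer binding above 40%, roughly 3 SD of noise, on plates passing a quality check; inactive = the rest.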 The sample as a whole holds a higher share of actives than the screen did.
Thanks in advance; please answer with one of these: Y (active), N (inactive)

INSERT INTO assay_data (molecule, qualitative_label) VALUES
  ('O=C(CNC(=O)c1n[nH]c2ccccc12)Nc1cc(Cl)ccc1Cl', 'N'),
  ('CN(Cc1ccccc1)C(=O)c1cccc(C(=O)N(C)Cc2ccccc2)c1', 'Y'),
  ('Cc1ccc(C(=O)N/C(=C/c2cccnc2)C(=O)O)cc1', 'N'),
  ('CC(=O)c1ccc(N2CCN(C(=O)c3ccc4nc[nH]c4c3)CC2)cc1', 'Y'),
  ('CN(CC(=O)O)C(=O)c1ccccc1', 'N'),
  ('CN(Cc1ccccc1)C(=O)c1ccc(COc2ccccc2)cc1', 'N'),
  ('O=C(Nc1nnc(-c2ccco2)o1)c1ccc(S(=O)(=O)N2CCOCC2)cc1', 'N'),
  ('CC(C)(C)NC(=O)/C(=C/c1cccnc1)NC(=O)c1ccco1', 'N'),
  ('O=C(Nc1ccc(N2CCOCC2)cc1)c1cccc(S(=O)(=O)N2CCOCC2)c1', 'N'),
  ('Cc1cc(C(=O)NC2CCN(Cc3ccccc3)CC2)n[nH]1', 'Y');

Please indicate how the test categorized COc1ccc(C(=O)NCCSc2ccccc2C)cc1 .
N

Please indicate how the test categorized O=C(NCCCN1CCCCCC1)c1ccc(N2CCCC2=O)cc1 .
Y

Please indicate how the test categorized O=C(CCNC(=O)c1ccccc1)NN=Cc1ccc(Br)o1 .
Y

Please indicate how the test categorized O=C(CCC(=O)N/N=C/c1ccc(Br)o1)N/N=C/c1ccc(Br)o1 .
N

Please indicate how the test categorized O=C(CN1CCN(S(=O)(=O)c2ccc(Cl)s2)CC1)NCc1ccc(Cl)cc1 .
N

Please indicate how the test categorized O=C(NC1CCCC1)C(c1ccc(N2CCOCC2)cc1)N(C(=O)c1ccco1)c1ccccc1F (configuration not stated) .
N

Please indicate how the test categorized O=C(c1ccccc1)c1ccc(C(=O)N2CCN(c3ccccc3)CC2)cc1 .
N

Please indicate how the test categorized CCNS(=O)(=O)c1ccc(CCC(=O)N2CCN(c3cc(Cl)ccc3C)CC2)cc1 .
N

Please indicate how the test categorized CCC(C)N1C(=O)S/C(=C/c2ccc(Sc3nc4ccccc4[nH]3)o2)C1=O (configuration not stated) .
N

Please indicate how the test categorized CC(C)c1ccc(Nc2nnc(SCC(=O)c3nnc(-c4ccccc4)o3)s2)cc1 .
N

Please indicate how the test categorized CC(C)(C)NC(=O)Cn1nnc(-c2ccccc2Cl)n1 .
N

Please indicate how the test categorized Cc1ccc(-c2cc(C(=O)NC3CCN(Cc4ccccc4)CC3)c3ccccc3n2)cc1 .
N

Origin of values: PubChem BioAssay AID488847
